Source of measurements: ChEMBL document CHEMBL4219124

- test target: Prostaglandin E synthase (Mus musculus) (UniProt Q9JM51)
- Sequence (whole entry): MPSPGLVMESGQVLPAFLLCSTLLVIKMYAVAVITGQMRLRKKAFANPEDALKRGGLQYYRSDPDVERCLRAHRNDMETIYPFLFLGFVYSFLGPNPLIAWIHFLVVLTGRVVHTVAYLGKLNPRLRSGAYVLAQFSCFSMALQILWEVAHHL
- test method notes: Inhibition of mouse mPGES1 expressed in CHO cells assessed as reduction in PGE2 production at 10 uM using PGH2 as substrate incubated for 10 mins followed by substrate addition measured for 1 min relative to control
endpoint name: inhibition (%)
Give a bare numeral; the unit % is implied.

Use the examples below as a reference point.
>  <structure notation>
CC1(C)Cc2c(c(C(=O)Nc3cc(C(F)(F)F)ccc3F)cc3nc(Nc4c(F)cccc4Cl)[nH]c23)O1

>  <test target>
Prostaglandin E synthase (Mus musculus) (UniProt Q9JM51)

>  <numeric readout>
14.4

$$$$
>  <structure notation>
Cc1cccc(Cl)c1Nc1nc2cc(C(=O)Nc3cc(C(F)(F)F)ccc3F)c3c(c2[nH]1)CC(C)(C)O3

>  <test target>
Prostaglandin E synthase (Mus musculus) (UniProt Q9JM51)

>  <numeric readout>
8.2

$$$$
>  <structure notation>
Cn1c(Nc2c(F)cccc2Cl)nc2cc(C(=O)Nc3cccc(C(F)(F)F)c3)c3c(c21)CC(C)(C)O3

>  <test target>
Prostaglandin E synthase (Mus musculus) (UniProt Q9JM51)

>  <numeric readout>
5.2

$$$$
>  <structure notation>
CC1(C)Cc2c(c(C(=O)Nc3ccc(C(F)(F)F)cn3)cc3nc(Nc4c(Cl)cccc4Cl)[nH]c23)O1

>  <test target>
Prostaglandin E synthase (Mus musculus) (UniProt Q9JM51)

>  <numeric readout>
10.9

$$$$
>  <structure notation>
Cc1cccc(Cl)c1Nc1nc2cc(C(=O)Nc3cc(C(F)F)ccc3F)c3c(c2[nH]1)CC(C)(C)O3

>  <test target>
Prostaglandin E synthase (Mus musculus) (UniProt Q9JM51)

>  <numeric readout>
2.5

$$$$

For "CC1(C)Cc2c(c(C(=O)Nc3ccc(F)c(C(F)(F)F)c3)cc3nc(Nc4c(F)cccc4Cl)[nH]c23)O1" the molecule record lists inhibition as 22.1
